# System: SARS-CoV-2 gRNA and sgRNAs
# Assay type: binding
# conditionNotes: […]; LC-MS/MS label-free quantification; probe pool not given
measurementLabel: target (unweighted spectral count of the protein in the RNP capture experiment)

Some molecules with recorded target (unweighted spectral count of the protein in the RNP capture experiment):
[
  {
    "molecule": "CHTOP (protein, UniProt Q9Y3Y2 2-248, looked up) Chromatin target of PRMT1 …: AAQSAPKVVLKSTTKMSLNERFTNMLKNKQPTPVNIRASMQQQQQLASARNRRLAQQMENRPSVQAALKLKQSLKQRLGKSNIQARLGRPIGALARGAIGGRGLPIIQRGLPRGGLRGGRATRTLLRGGMSLRGQNLLRGGRAVAPRMGLRRGGVRGRGGPGRGGLGRGAMGRGGIGGRGRGMIGRGRGGFGGRGRGRGRGRGALARPVLTKEQLDNQLDAYMSKTKGHLDAELDAYMAQTDPETND",
    "observedResult": 5
  },
  {
    "molecule": "SRSF2 (protein, UniProt Q01130 2-221, looked up) Serine/arginine-rich splicing …: SYGRPPPDVEGMTSLKVDNLTYRTSPDTLRRVFEKYGRVGDVYIPRDRYTKESRGFAFVRFHDKRDAEDAMDAMDGAVLDGRELRVQMARYGRPPDSHHSRRGPPPRRYGGGGYGRRSRSPRRRRRSRSRSRSRSRSRSRSRYSRSKSRSRTRSRSRSTSKSRSARRSKSKSSSVSRSRSRSRSRSRSRSPPPVSKRESKSRSRSKSPPKSPEEEGAVSS",
    "observedResult": 11
  },
  {
    "molecule": "PURB (protein, UniProt Q96QR8 2-312, looked up) Transcriptional regulator …: ADGDSGSERGGGGGPCGFQPASRGGGEQETQELASKRLDIQNKRFYLDVKQNAKGRFLKIAEVGAGGSKSRLTLSMAVAAEFRDSLGDFIEHYAQLGPSSPEQLAAGAEEGGGPRRALKSEFLVRENRKYYLDLKENQRGRFLRIRQTVNRGGGGFGAGPGPGGLQSGQTIALPAQGLIEFRDALAKLIDDYGGEDDELAGGPGGGAGGPGGGLYGELPEGTSITVDSKRFFFDVGCNKYGVFLRVSEVKPSYRNAITVPFKAWGKFGGAFCRYADEMKEIQERQRDKLYERRGGGSGGGEESEGEEVDED",
    "observedResult": 5
  }
]

Recorded result, PA2G4 (protein, UniProt Q9UQ80 2-394, looked up) Proliferation-associated …: SGEDEQQEQTIAEDLVVTKYKMGGDIANRVLRSLVEASSSGVSVLSLCEKGDAMIMEETGKIFKKEKEMKKGIAFPTSISVNNCVCHFSPLKSDQDYILKEGDLVKIDLGVHVDGFIANVAHTFVVDVAQGTQVTGRKADVIKAAHLCAEAALRLVKPGNQNTQVTEAWNKVAHSFNCTPIEGMLSHQLKQHVIDGEKTIIQNPTDQQKKDHEKAEFEVHEVYAVDVLVSSGEGKAKDAGQRTTIYKRDPSKQYGLKMKTSRAFFSEVERRFDAMPFTLRAFEDEKKARMGVVECAKHELLQPFNVLYEKEGEFVAQFKFTVLLMPNGPMRITSGPFEPDLYKSEMEVQDAELKALLQSSASRKTQKKKKKKASKTAENATSGETLEENEAGD , target (unweighted spectral count of the protein in the RNP capture experiment): 5

Recorded result, CRIP2 (protein, UniProt P52943 1-208, looked up) Cysteine-rich protein 2: MASKCPKCDKTVYFAEKVSSLGKDWHKFCLKCERCSKTLTPGGHAEHDGKPFCHKPCYATLFGPKGVNIGGAGSYIYEKPLAEGPQVTGPIEVPAARAEERKASGPPKGPSRASSVTTFTGEPNTCPRCSKKVYFAEKVTSLGKDWHRPCLRCERCGKTLTPGGHAEHDGQPYCHKPCYGILFGPKGVNTGAVGSYIYDRDPEGKVQP , target (unweighted spectral count of the protein in the RNP capture experiment): 6
